Assay: Apparent clearance in human liver microsomes
Type: ADME, microsome
Conditions: read-out: CLH(app)

[
  {
    "smiles": "C[C@]1(O)CCN(c2nc(N3C[C@H](O)[C@@H](O)C3)cc(C(F)(F)F)c2C#N)C1",
    "microsomal CLint": "< 8 µL/min/mg"
  },
  {
    "smiles": "C[C@@]1(O)CCN(c2c(C#N)c(C(F)(F)F)nc3cc[nH]c23)C1",
    "microsomal CLint": "< 8 µL/min/mg"
  },
  {
    "smiles": "C[C@]1(O)CCN(c2c(C#N)c(C(F)(F)F)nc3cc[nH]c23)C1",
    "microsomal CLint": "< 8 µL/min/mg"
  }
]
